System: HOP-62 NSCLC
Procedure Summary: NCI-60 one-dose screen, 48 h (100 = growth as untreated, 0 = no growth, -100 = all killed)
Test Context: 10 µM unless noted
Compounds without any hit were thinned out: in the full panel of roughly 83,000, 20% have a hit.
Metric Name: growth (%)
Use % as the unit, but write only the number.

Query block: Record request: growth value, item `COc1ccc(-c2nn(-c3ccc(NC(=O)Nc4cc(C(F)(F)F)cc(C(F)(F)F)c4)cc3)cc2-c2ccncc2)cc1Cl`
Result block: 19.5

Query block: Please look up its growth: O=C1CCC(c2c(O)cc(O)c3c(=O)c(O)c(-c4ccc(O)c(O)c4)oc23)N1 (centres undefined)
Result block: 84.3

Query block: Item under review: `COC(=O)c1ccc(NC(N)=NCC(C)(C)COc2ccc(C(F)(F)F)cc2)nc1` . Reported growth?
Result block: 76.6

Query block: Please look up its growth: `O=C(Nc1ccc(-n2ccc3c(NC(=O)c4ccccc4)ncnc32)cc1)c1ccc(Cl)c(C(F)(F)F)c1`
Result block: 45.6

* * *

Test system: OVCAR-5 ovarian
Procedure Summary: NCI-60 one-dose screen, 48 h
Test Context: 10 µM unless noted
The panel holds about 83,000 compounds, 20% with a hit somewhere; the sample as a whole holds those more often. Calls of active or inactive are those of the source. The calls were made as follows: active = growth percent below 10; inactive = the rest.
Parameter call: string, one of active, inactive

Query block: Assay outcome for `O=C(NCCNc1nccc(-c2c(-c3cccc(O)c3)nc3sccn23)n1)Nc1cc(C(F)(F)F)cc(C(F)(F)F)c1` : what was it?
Result block: inactive

Query block: Give the logged outcome of this assay for the following molecule: `O=C(Nc1ccc(-n2cc(-c3ccncc3)c(-c3ccc(O)c(Cl)c3)n2)cc1)c1ccc(Cl)c(Cl)c1`
Result block: inactive

Query block: Call for entry `COC(=O)/C=C/C(=O)c1cc(C)cc(C)c1O` :
Result block: inactive

Query block: Kindly provide the recorded test outcome for the following molecule: `CN(CCNCc1ccccn1)CCNCc1ccccn1`
Result block: active

Query block: Call for entry `CCCCCC/C=N/Nc1ccc([N+](=O)[O-])cn1` :
Result block: inactive

Query block: So what was the verdict on `C=CC(=O)Nc1cccc(Nc2nc(Nc3ccc(OCCOC(F)F)cc3)ncc2F)c1` in this test?
Result block: inactive

Query block: How did this test come out for `O=C(Nc1ccc(-n2ccc3c(NC(=O)c4ccccc4)ncnc32)cc1)Nc1ccc(Cl)c(Cl)c1` ?
Result block: inactive

Query block: Please share the test call associated with `c1nc(SC2=NCCN2)c2[nH]cnc2n1` .
Result block: inactive

Query block: Record lookup: outcome of this test for `CCOC(=O)CSc1nnc(-c2cc3c([nH]c4ccccc43)c(-c3cccc(O)c3)n2)n1-c1ccc(C)cc1` ?
Result block: inactive

Query block: Dear colleague, could you share the recorded outcome for `Nn1c(SCC(=O)Nc2cc(Cl)c(Cl)cc2Cl)nnc1-c1cc(F)c(Cl)cc1Cl` when you have a moment?
Result block: inactive

* * *

Tested on: RXF 393 renal
Procedure Summary: NCI-60 one-dose screen, 48 h (100 = growth as untreated, 0 = no growth, -100 = all killed)
Test Context: 10 µM unless noted
This is part of a sample that, as a whole, favours compounds with a hit. Of some 83,000 tested, about 20% had one in any assay.
Please respond with reported growth for every item in the list.
Record the value in %, omitting the unit from your answer.

Query block: So what's the measured growth for this one? `O=C1c2ccccc2OC=C(c2ccccc2)N1CCCCN1CCCCC1`
Result block: 95.7

Query block: Which growth value belongs to `COc1cc(-c2nc(SCC(=O)Nc3ccc(C(C)=O)cc3)[nH]c(=O)c2C#N)cc(OC)c1OC` ?
Result block: 24.6

Query block: Which measured growth value corresponds to `O=C(Nc1ccccc1Cl)c1c[nH]c(=O)c(-c2ccc(N3CCCOC4(CC4)C3)cc2)c1` ?
Result block: 81.2

Query block: Any idea what its growth is? The molecule is `O=C(Nc1ccc(-n2ccc3c(NC(=O)c4ccccc4)ncnc32)cc1)c1ccc(Cl)c(C(F)(F)F)c1`
Result block: 19

Query block: What value of measured growth is listed for `CCCCCCCCCCCCCCCCCCNCc1ccc(Cl)cc1` ?
Result block: -74.4
